Hello, the source for this data is the supplement of paper PMC7125110, in case you need it.

Task for the reader: assign each of the following variants its reported self-cleavage kobs at 10000 uM GlcN6P.
B1: glmS ribozyme (parent)
chain: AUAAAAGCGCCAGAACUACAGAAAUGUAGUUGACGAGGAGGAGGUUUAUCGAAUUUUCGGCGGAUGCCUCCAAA

Variants of: B1
protocol.notes: self-cleavage kobs at 10000 uM GlcN6P; higher = faster cleavage; RNA array
condition.summary: with glucosamine-6-phosphate
Fewer inactive variants are shown than the library holds.

Form field: reported self-cleavage kobs at 10000 uM GlcN6P of AUAAAAGCGCCAGAACUACAGAAAUGUAGUUUACGAGGAGGAGGGUUAUCGAAUUUUCGGCGGAUGCCUCCAAA 0.000203 s⁻¹

And then AUAAAAGCGCCAGAACUACAGAAAUGUAGUUAACCAGGAGGAGGUUUAUCGAAUUUUCGGCGGAUGGCUCCAAA , what is it? < 1e-05 s⁻¹

And then AUAAAAGCGCCAGAAUUACAGAAAUGUAGUUGCCGAGGAGGAGGUUUAUCGAAUUUUCGGCGGAUGCCUCCAAA , what is it? 0.000247 s⁻¹

And then AUAAAAGGGCCAGAACUACAGAAAUGUAGUUGACGAGGAGGAGGUUUAUCGAAUAUUCGGCGGAUGCCUCCAAA , what is it? < 1e-05 s⁻¹

And then AUAAACGCGCCAGCACUACAGAAAUGUAGUUGACGAGGAGGAGGGUUAUCGAAUUUCCGGCGGAUGCCUCCAAA , what is it? < 1e-05 s⁻¹

And then AUAAAAGCGCCAGAACUACAGAAAUGUAGUUGACGAAAAGGCGGUUUAUCGAAUUUUCUGCGGAUGCCUCCAAA , what is it? < 1e-05 s⁻¹

And then AUAAAAGCGCCAGAACUACAGAAAUGUAGUUGACGAGGAGGAGGUUUAUCGAAUUUUCGGUAGAUGCCUCCAAA , what is it? < 1e-05 s⁻¹

And then AUAAAAGCGCCAGAUCUACAGAAAUGUAGUUGACGAGGAGGAGGUUUAUUGAAUUUUGGGCGGAUGCCUCCAAA , what is it? < 1e-05 s⁻¹

And then AUAAAAGCGCCAGACCUACAGAAAUGUAGUUGACGUGGAGGAGGUUUAUCGAAUUUUCGGCGGAUGCCUCCAAA , what is it? < 1e-05 s⁻¹

And then AUAAAAGAGCCAGAACUACAGAAAUGUAGUUGACGCGGAGGAGGUUUAUCGAAUUUUCGGCGGAUGCCUCCAAA , what is it? < 1e-05 s⁻¹
